Reference for the values: patent US20260015350A1

# target: KRas^G12A (Homo sapiens, UniProt P01116, G12A)
# Construct: Biotinylated KRas (corresponding to amino acids 1-169, produced at Accelegan Inc.); biotin (biotinylated); purchased Accelegan Inc
# Sequence (P01116 1-169 isoform P01116-2 G12A): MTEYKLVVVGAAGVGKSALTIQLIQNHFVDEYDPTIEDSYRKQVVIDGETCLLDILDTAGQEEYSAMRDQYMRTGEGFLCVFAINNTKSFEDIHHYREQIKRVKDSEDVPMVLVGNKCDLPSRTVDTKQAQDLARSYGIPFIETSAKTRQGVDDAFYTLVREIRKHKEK
# testMethodNotes: KRas binding assay (TR-FRET tracer displacement), KRas G12A
# conditions: TR-FRET tracer displacement, KRas G12A
Note to self: IC50 under 60 nM means 1 (yes), ties and anything higher get 0 (no).

Inquiry: is_below(IC50, 60 nM) for CC1(O)COCCN(c2nc(OCC34CCCN3CCC4)nc3c(F)c(-c4cc(O)cc(Cl)c4C4CC4)ncc23)C1 (racemic) [Example 740] ?
Reply text: 1 (yes)

Inquiry: is_below(IC50, 60 nM) for Cc1cc2[nH]cnc2c(-c2ncc3c(N4CCC[C@@](C)(O)C4)nc(OCC45CCCN4CCC5)nc3c2F)c1C [Example 888] ?
Reply text: 0 (no)

Inquiry: is_below(IC50, 60 nM) for O=C1NC(=O)C2CC(c3nc(OCC45CCCN4CCC5)nc4c(F)c(-c5cccc6cccc(F)c56)ncc34)=CC12 (centres unmarked) [Example 525] ?
Reply text: 0 (no)

Inquiry: is_below(IC50, 60 nM) for O=S1(=O)NCC2(CCCN(c3nc(OCC45CCCN4CCC5)nc4c(F)c(-c5cc(O)cc(Cl)c5C5CC5)ncc34)C2)N1 (centres unmarked) [Example 745] ?
Reply text: 1 (yes)

Inquiry: is_below(IC50, 60 nM) for O=C1NC(=O)[C@]2(CCCN(c3nc(OCC45CCCN4CCC5)nc4c(F)c(-c5c(C6CC6)c(Cl)cc6[nH]ncc56)ncc34)C2)N1 [Example 779] ?
Reply text: 1 (yes)

Inquiry: is_below(IC50, 60 nM) for Oc1cc(-c2ncc3c(N4C[C@@H]5C[C@H](C4)[C@H](O)C5)nc(OC[C@@]45CCCN4C[C@H](F)C5)nc3c2F)c2ccccc2c1F [Example 750] ?
Reply text: 0 (no)

Inquiry: is_below(IC50, 60 nM) for Cc1cc2c(c(-c3ncc4c(N5CCC[C@@](C)(O)C5)nc(OCC56CCCN5CCC6)nc4c3F)c1C)CC(=O)N2 [Example 784] ?
Reply text: 0 (no)

Inquiry: is_below(IC50, 60 nM) for Cc1ccc2c(-c3ncc4c(N5C[C@@H]6C[C@H](C5)[C@H](O)C6)nc(OC[C@@]56CCCN5C[C@H](F)C6)nc4c3F)cc(O)cc2c1 [Example 746] ?
Reply text: 0 (no)

Inquiry: is_below(IC50, 60 nM) for CN(C)C(=O)c1cc2n(n1)CCCN(c1nc(OCC34CCCN3CCC4)nc3c(F)c(-c4c5ccccc5cc5[nH]ncc45)ncc13)C2 [Example 757] ?
Reply text: 0 (no)

Inquiry: is_below(IC50, 60 nM) for Cc1cc2[nH]nnc2c(-c2ncc3c(N4C[C@@H]5C[C@H](C4)[C@H](O)C5)nc(OCC45CCCN4CCC5)nc3c2F)c1C [Example 832] ?
Reply text: 0 (no)

Inquiry: is_below(IC50, 60 nM) for O=C1NC(=O)C2(CCCN(c3nc(OCC45CCCN4CCC5)nc4c(F)c(-c5cc(O)cc(Cl)c5C5CC5)ncc34)C2)N1 (centres unmarked) [Example 739] ?
Reply text: 1 (yes)

Inquiry: is_below(IC50, 60 nM) for CN(C)C(=O)c1cc2n(n1)CCCN(c1nc(OC[C@@]34CCCN3C[C@H](F)C4)nc3c(F)c(-c4c(C5CC5)c(Cl)cc5[nH]ncc45)ncc13)C2 [Example 882] ?
Reply text: 1 (yes)

Inquiry: is_below(IC50, 60 nM) for Cc1cc2[nH]ncc2c(-c2ncc3c(N4CCC[C@]5(C4)NC(=O)NC5=O)nc(OC[C@@]45CCCN4C[C@H](F)C5)nc3c2F)c1C [Example 731] ?
Reply text: 1 (yes)

Inquiry: is_below(IC50, 60 nM) for O=S1(=O)NCC2(CCCN(c3nc(OC[C@@]45CCCN4C[C@H](F)C5)nc4c(F)c(-c5c6ccccc6cc6[nH]ncc56)ncc34)C2)N1 (some centres unmarked) [Example 762] ?
Reply text: 1 (yes)

====

# Test system: KRas-mediated phosphorylation of ERK in H460 cells
# testMethodNotes: Inhibition of KRas-mediated phosphorylation of ERK (Cisbio HTRF pERK), H460 cells
# Format: cell-based
# conditions: Homo sapiens, NCI-H460, HTRF pERK
Note to self: IC50 under 100 nM means satisfied, ties and anything higher get not satisfied.

Inquiry: is_below(IC50, 100 nM) for CCc1c(F)ccc2cc(O)cc(-c3ncc4c(N5C[C@H]6C[C@@H](C5)C(=O)NC6=O)nc(OC[C@@]56CCCN5C[C@H](F)C6)nc4c3F)c12 ?
Reply text: not satisfied

Inquiry: is_below(IC50, 100 nM) for CCc1c(F)ccc2cc(O)cc(-c3ncc4c(N5CC6CCC(C(N)=O)(C6)C5)nc(OC[C@@]56CCCN5C[C@H](F)C6)nc4c3F)c12 (some centres unmarked) ?
Reply text: not satisfied

Inquiry: is_below(IC50, 100 nM) for CCc1c(F)ccc2cc(O)cc(-c3ncc4c(N5CC6CCC(C(=O)N(C)C)(C6)C5)nc(OC[C@@]56CCCN5C[C@H](F)C6)nc4c3F)c12 (some centres unmarked) ?
Reply text: not satisfied

Inquiry: is_below(IC50, 100 nM) for C[C@@H]1C[C@@H]1c1c(Cl)cc(O)cc1-c1ncc2c(N3CCC[C@@](C)(O)C3)nc(OC[C@@]34CCCN3C[C@H](F)C4)nc2c1F ?
Reply text: satisfied

Inquiry: is_below(IC50, 100 nM) for CCc1c(F)ccc2cc(O)cc(-c3ncc4c(N5CCCC6(CNS(=O)(=O)C6)C5)nc(OC[C@@]56CCCN5C[C@H](F)C6)nc4c3F)c12 (some centres unmarked) ?
Reply text: not satisfied

Inquiry: is_below(IC50, 100 nM) for CCc1c(F)ccc2cc(O)cc(-c3ncc4c(N5CCC[C@@](C)(O)C5)nc(OC[C@]56CCCN5[C@H](CF)CC6)nc4c3F)c12 ?
Reply text: satisfied

Inquiry: is_below(IC50, 100 nM) for CCc1c(F)ccc2cc(O)cc(-c3ncc4c(N5CC6CCC(C(=O)N(C)C)(C5)C6(F)F)nc(OC[C@@]56CCCN5C[C@H](F)C6)nc4c3F)c12 (some centres unmarked) ?
Reply text: not satisfied

Inquiry: is_below(IC50, 100 nM) for CCc1c(F)ccc2cc(O)cc(-c3ncc4c(N5CCCn6nncc6C5)nc(OC[C@@]56CCCN5C[C@H](F)C6)nc4c3F)c12 ?
Reply text: not satisfied

Inquiry: is_below(IC50, 100 nM) for C=C1CN2CC(=C)CC2(COc2nc(N3CCC[C@@](C)(O)C3)c3cnc(-c4cc(O)cc5ccc(F)c(CC)c45)c(F)c3n2)C1 ?
Reply text: satisfied

Inquiry: is_below(IC50, 100 nM) for CCc1c(F)ccc2cc(O)cc(-c3ncc4c(N5CC6CCC(CC(N)=O)(C6)C5)nc(OC[C@@]56CCCN5C[C@H](F)C6)nc4c3F)c12 (some centres unmarked) ?
Reply text: not satisfied

Inquiry: is_below(IC50, 100 nM) for CCc1c(F)ccc2cc(O)cc(-c3ncc4c(N5CC6CCC(CO)(C6)C5)nc(OC[C@@]56CCCN5C[C@H](F)C6)nc4c3F)c12 (some centres unmarked) ?
Reply text: not satisfied

====

# target: KRas^G12D (Homo sapiens, UniProt P01116, G12D)
# Construct: Biotinylated KRas (corresponding to amino acids 1-169, produced at Accelegan Inc.); biotin (biotinylated); purchased Accelegan Inc
# Sequence (P01116 1-169 isoform P01116-2 G12D): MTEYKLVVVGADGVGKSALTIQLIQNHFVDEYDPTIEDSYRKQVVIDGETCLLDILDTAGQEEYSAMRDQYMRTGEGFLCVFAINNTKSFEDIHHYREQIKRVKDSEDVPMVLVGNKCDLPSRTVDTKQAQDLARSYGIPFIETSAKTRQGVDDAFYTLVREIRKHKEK
# testMethodNotes: KRas binding assay (TR-FRET tracer displacement), KRas G12D
Would you kindly list IC50 for each of these compounds?
Write it as a number; the unit nM goes unstated.

response.value for CCc1c(F)ccc2cc(O)cc(-c3ncc4c(N5C[C@@H]6C[C@H](C5)[C@H](O)C6)nc(OC[C@@H]5CC[C@H]6COCCN65)nc4c3F)c12 (field: IC50) = 6

response.value for CCc1c(F)ccc2cc(O)cc(-c3ncc4c(N5CCCC(C6CCOC6)C5)nc(OC[C@@]56CCCN5C[C@H](F)C6)nc4c3F)c12 (stereo partly drawn) (field: IC50) = 194

response.value for CCc1c(F)ccc2cc(O)cc(-c3ncc4c(N5CCC[C@@](C)(O)C5)nc(OCC5(CN)CC5)nc4c3F)c12 (field: IC50) = 5

====

# target: KRas^G12V (Homo sapiens, UniProt P01116, G12V)
# Construct: Biotinylated KRas (corresponding to amino acids 1-169, produced at Accelegan Inc.); biotin (biotinylated); purchased Accelegan Inc
# Sequence (P01116 1-169 isoform P01116-2 G12V): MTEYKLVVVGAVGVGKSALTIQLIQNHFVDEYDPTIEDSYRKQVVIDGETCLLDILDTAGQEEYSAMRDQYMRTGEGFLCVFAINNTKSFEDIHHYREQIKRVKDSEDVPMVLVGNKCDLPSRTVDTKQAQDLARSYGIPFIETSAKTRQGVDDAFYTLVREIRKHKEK
# testMethodNotes: KRas binding assay (TR-FRET tracer displacement), KRas G12V
endpointLabel: IC50

response.value for CCc1c(F)ccc2cc(O)cc(-c3ncc4c(N5CCC[C@@](C)(O)C5)nc(OC[C@@]56CCCN5[C@@H](CNS(=O)(=O)N(C)C)CC6)nc4c3F)c12 (field: IC50) = < 2 nM

response.value for CCc1c(F)ccc2cc(O)cc(-c3ncc4c(N5CCC[C@@](C)(O)C5)nc(OCC56CC5CN(C)C6)nc4c3F)c12 (some centres unmarked) (field: IC50) = < 2 nM

response.value for CCc1c(F)ccc2cc(O)cc(-c3ncc4c(N5CCCC6(C5)NC(=O)NC6=O)nc(N5CC(C)(N)C5)nc4c3F)c12 (centres unmarked) (field: IC50) = < 2 nM

response.value for C#Cc1c(F)ccc2cc(O)cc(-c3ncc4c(N5CCCC6(CC(O)C6)C5)nc(OC[C@]56CCCN5[C@H](COC(=O)N(C)C)CC6)nc4c3F)c12 (some centres unmarked) (field: IC50) = < 2 nM

response.value for CCc1c(F)ccc2cc(O)cc(-c3ncc4c(N5CCCO[C@@H](CCO)C5)nc(OC[C@@]56CCCN5C[C@H](F)C6)nc4c3F)c12 (field: IC50) = 8 nM

response.value for C=C1CN2CC(=C)CC2(COc2nc(N3CCC[C@@](C)(O)C3)c3cnc(-c4cc(O)cc5ccc(F)c(CC)c45)c(F)c3n2)C1 (field: IC50) = < 2 nM

response.value for CCc1c(F)ccc2cc(O)cc(-c3ncc4c(N5CCC[C@@](C)(O)C5)nc(N5CC(N)C5)nc4c3F)c12 (field: IC50) = 150 nM

response.value for C[C@@]1(O)CCCN(c2nc(OCC34CCCN3CCC4)nc3c(F)c(-c4c(C5CC5)c(Cl)cc5[nH]ncc45)ncc23)C1 (field: IC50) = 11 nM

response.value for CCc1c(F)ccc2cc(O)cc(-c3ncc4c(N5Cc6n[nH]c(C(=O)N(C)C)c6C5)nc(OC[C@@]56CCCN5C[C@H](F)C6)nc4c3F)c12 (field: IC50) = 454 nM

response.value for CCc1c(F)ccc2cc(O)cc(-c3ncc4c(N5CCC[C@@](C)(O)C5)nc(OC[C@]56CCCN5CC(=C(F)F)C6)nc4c3F)c12 (single isomer, unassigned) (field: IC50) = < 2 nM

response.value for Cc1cc2[nH]ncc2c(-c2ncc3c(N4CCCC5(CNC(=O)N5)C4)nc(OCC45CCCN4CCC5)nc3c2F)c1C (centres unmarked) (field: IC50) = 36 nM

response.value for O=C1NCC2(CCCN(c3nc(OCC45CCCN4CCC5)nc4c(F)c(-c5cc(O)cc(Cl)c5C5CC5)ncc34)C2)N1 (centres unmarked) (field: IC50) = < 2 nM

response.value for Cc1cccc2cc3[nH]ncc3c(-c3ncc4c(N5CCCC6(CNS(=O)(=O)N6)C5)nc(OCC56CCCN5CCC6)nc4c3F)c12 (centres unmarked) (field: IC50) = < 2 nM

response.value for O=C1NC(=O)[C@]2(CCCN(c3nc(OCC45CCCN4CCC5)nc4c(F)c(-c5c(C6CC6)c(Cl)cc6[nH]ncc56)ncc34)C2)N1 (field: IC50) = < 2 nM
